Kindly state LC retention time for each of the entries shown.
Procedure Details: Waters ACQUITY UPLC BEH C18, 100 × 2.1 mm, 1.7 µm, 40 °C, 0.28 mL/min, estimated dead time 0.63 min; A: water + 6.5 mM ammonium hydroxide; B: methanol + 6.5 mM ammonium hydroxide; gradient (min/%B) 0/0.5 4/70 4.5/98 5.4/98
Measurement Conditions: stereoisomer not certain
Answers are plain numbers, in min.

> print(dat)
                                   molecule  value.units  result.value
1                                Oc1ccccc1O          min          2.93
2  OCC1OC(OCC2OC(OC3(CO)OC(CO)C(O)C3O)C(O)C(O)C2O)C(O)C(O)C1O (stereo not drawn)          min          1.05

Answer for every listed entry: what is its LC retention time? The entries follow.
1. CCC(O)C(=O)O (stereo not drawn)
2. O=C(O)Cc1cccc(O)c1
3. CSc1ncnc2nc[nH]c12
4. O=C(O)Cc1c[nH]c2ccc(O)cc12
5. CNCC(=O)O

1: 0.842; 2: 1.79; 3: 3.28; 4: 1.72; 5: 0.778

Count: 4. Required value per item: LC retention time.
1. OCC1OC(OCC2OC(O)C(O)C(O)C2O)C(O)C(O)C1O (stereo not drawn)
2. CC(C)(COP(=O)(O)OP(=O)(O)OCC1OC(n2cnc3c(N)ncnc32)C(O)C1OP(=O)(O)O)C(O)C(=O)NCCC(=O)NCCS (stereo not drawn)
3. CCCCC(N)C(=O)O (stereo not drawn)
4. O=C(O)CNC(=O)c1cccc(O)c1

1. 0.831
2. 0.853
3. 1.77
4. 1.91

# batch size: 2; output LC retention time per entry
1. O=c1ccn(C2CC(O)C(COP(=O)(O)O)O2)c(=O)[nH]1 (stereo not drawn)
2. CCC(C(=O)O)c1ccccc1 (stereo not drawn)

1: 0.813; 2: 3.74

----------
Please go through the items and note down their LC retention time.
Procedure Details: Waters ACQUITY UPLC BEH C18, 100 × 2.1 mm, 1.7 µm, 40 °C, 0.28 mL/min, estimated dead time 0.63 min; A: water + 6.5 mM ammonium hydroxide; B: methanol + 6.5 mM ammonium hydroxide; gradient (min/%B) 0/0.5 4/70 4.5/98 5.4/98
Measurement Conditions: stereoisomer not certain
Answers are plain numbers, in min.

Molecule	Result Value
COc1cc(CC(=O)O)ccc1OS(=O)(=O)O	0.848
COc1cc(C(O)CN)ccc1O (configuration not stated)	1.88
CC(C)=CCNc1ncnc2nc[nH]c12	4.91
O=c1ccc2cc(OC3OC(CO)C(O)C(O)C3O)c(O)cc2o1 (configuration not stated)	2.17
OCCc1c[nH]c2ccccc12	4.36
O=C(O)C(O)c1ccc(O)cc1 (configuration not stated)	0.823
CC(C)=CC(=O)SCCNC(=O)CCNC(=O)C(O)C(C)(C)COP(=O)(O)OP(=O)(O)OCC1OC(n2cnc3c(N)ncnc32)C(O)C1OP(=O)(O)O (configuration not stated)	2.95
O=C(O)c1ccc(O)c(O)c1O	0.832

Batch: LC retention time for all items listed.
1. NCC(O)c1ccccc1 (configuration not stated)
2. CC(=O)NC(Cc1ccccc1)C(=O)O (configuration not stated)
3. NC(C(=O)O)c1ccc(O)cc1 (configuration not stated)
4. NC(=O)CCC(N)C(=O)O (configuration not stated)

1: 3.07; 2: 2.99; 3: 0.818; 4: 0.764
